Assay: Toxicity in human MCF-10A cells
Assay type: cell-based
EXPERIMENTAL READOUT: IC50

| MOLECULE SMILES | IC50 |
| --- | --- |
| CCc1nc(-c2ccc(CNC(=O)c3c(Cl)c(CC)nn3C)cc2)no1 | > 50 µM |
| Cn1ncc(Cl)c1C(=O)NCc1ccc(Oc2ccc(Cl)nc2)cc1 | > 50 µM |
| Cc1nn(C)c(C(=O)NCc2ccc(Oc3ccc(Cl)nc3)cc2)c1Cl | > 50 µM |
| CCc1nc(-c2ccc(CNC(=O)c3ccnn3C)cc2)no1 | > 100 µM |

Which IC50 is reported for this compound? Cn1ncc(Cl)c1C(=O)NCc1ccc(Oc2ccc(Cl)cc2)cc1
> 50 µM

Every entry's value here was drawn from ChEMBL document CHEMBL4765471.
